Tested on: U-2932
Experiment: growth inhibition by drug plus 177Lu-lilotomab satetraxetan (1 - RLU/untreated control) (fraction); higher = stronger inhibition
Details: 10 nM; time (day): 3; 177Lu-lilotomab satetraxetan 1 ug/ml
Assign Met whenever growth inhibition by drug plus 177Lu-lilotomab satetraxetan does not fall below 0.04; assign Not met whenever it does.

molecule=C[C@@H](Oc1cc(-c2cnn(C3CCNCC3)c2)cnc1N)c1c(Cl)ccc(F)c1Cl class="Not met"
molecule=CNC(=O)[C@@H](NC(=O)[C@H](CC(C)C)[C@H](O)C(=O)NO)C(C)(C)C class="Not met"
molecule=CN(C)C[C@@H]1CCn2cc(c3ccccc32)C2=C(C(=O)NC2=O)c2cn(c3ccccc23)CCO1 class=Met
molecule=CC(=O)O[C@H]1C(=O)[C@@]2(C)[C@H]([C@H](OC(=O)c3ccccc3)[C@]3(O)C[C@H](OC(=O)[C@H](O)[C@@H](NC(=O)c4ccccc4)c4ccccc4)C(C)=C1C3(C)C)[C@]1(OC(C)=O)CO[C@@H]1C[C@@H]2O class=Met
molecule=O=C(NC1CCNCC1)c1n[nH]cc1NC(=O)c1c(Cl)cccc1Cl class=Met
molecule=CC(=O)O[C@@]12CO[C@@H]1C[C@H](O)[C@@]1(C)C(=O)[C@H](O)C3=C(C)[C@@H](OC(=O)[C@H](O)[C@@H](NC(=O)OC(C)(C)C)c4ccccc4)C[C@@](O)([C@@H](OC(=O)c4ccccc4)[C@H]21)C3(C)C class=Met
molecule=COc1cc(C(=O)NC(=S)Nc2cccc(NC(=O)c3ccccc3)c2)cc(OC)c1OC class="Not met"
molecule=Cc1ccc(C(=O)Nc2ccc(CN3CCN(C)CC3)c(C(F)(F)F)c2)cc1C#Cc1cnc2cccnn12 class="Not met"

Reported growth inhibition by drug plus 177Lu-lilotomab satetraxetan at or above 0.04? COc1cc2ncnc(-n3nc(-c4ccccn4)nc3N)c2cc1OC Met

Test whether the molecule CC(=O)O[C@]1(C(C)=O)CC[C@H]2[C@@H]3C=C(C)C4=CC(=O)CC[C@]4(C)[C@H]3CC[C@@]21C [Megestrol Acetate] records growth inhibition by drug plus 177Lu-lilotomab satetraxetan of 0.04 or higher. Not met
